# Tested on: human Hep G2 cells (ATCC HB-8065)
# protocol: Cytotoxicity in Hep G2 cells (CellTiter-Glo)
# Type: cell-based
# conditions-used: Hep G2 cells, 100 μM test article, 24-hour exposure
Criterion: % Cell Viability meeting or surpassing 60%. Met: yes. Not met: no.

Does % Cell Viability meet or surpass 60% for COc1cc(-c2cn(C)nc2C)cc([C@@H](C)NC(=O)c2cc(N3CC4CNCC4C3)ccc2C)c1 (stereo partly shown) ?
yes

Form field: % Cell Viability at least 60%? Entry: Cc1ccc(N2CCN(C)CC2)cc1C(=O)N[C@H](C)c1cccc(N2CCNCC2)c1
yes

Threshold query (% Cell Viability >= 60%) on Cc1ccc(N2CC3(CNC3)C2)cc1C(=O)N[C@H](C)c1cccc2ccccc12
no

Identify whether the reported % Cell Viability of the following compound is 60% or greater: COc1cc(-c2cnn(C)c2)cc([C@@H](C)NC(=O)c2cc(N3CC4CNCC4C3)ccc2C)c1 (stereo partly shown)
no

For this compound, is measured % Cell Viability 60% or higher? Cc1ccc(N2CCN(C)CC2)cc1C(=O)N[C@H](C)c1ccc(C)c(-c2cnn(C)c2)c1
yes

Reported % Cell Viability at or above 60%? Cc1ccc(N2CCN(C)CC2)c(C)c1C(=O)N[C@H](C)c1cccc2ccccc12
no

I'd appreciate it if you could say whether Cc1ccc(N2CCN(C)CC2)cc1C(=O)N[C@H](C)c1cc(-c2cnn(C)c2)cs1 has % Cell Viability at least equal to 60%.
yes

Given Cc1ccc(N2CCN(C3CC3)CC2)cc1C(=O)N[C@H](C)c1cccc2ccccc12 , state whether its % Cell Viability is at least 60%.
no

Does % Cell Viability meet or surpass 60% for COc1cc(OC)c([C@@H](C)NC(=O)c2cc(N3CCN(C)CC3)ccc2C)cc1-c1cnn(C)c1 ?
yes

Test whether the compound COc1ccc([C@@H](C)NC(=O)c2cc(N3CC4(CNC4)C3)ccc2C)cc1-c1cnn(C)c1 records % Cell Viability of 60% or higher.
yes

% Cell Viability >= 60% for Cc1ccc(N2CC3(CN(CCC(=O)O)C3)C2)cc1C(=O)N[C@H](C)c1cccc2ccccc12 ?
yes

Determine whether measured % Cell Viability meets or exceeds 60% for Cc1ccc(N2CCN(C)CC2)cc1C(=O)N[C@H](C)c1cccc(-c2ccc(CO)s2)c1
no

Can Cc1ccc(N2CC[C@@H](N3CCCCC3)C2)cc1C(=O)N[C@H](C)c1cccc2ccccc12 be said to have % Cell Viability at or above 60%?
yes

Hello, I need to know if CC(=O)N1CCN(c2ccc(C)c(C(=O)N[C@H](C)c3cccc4ccccc34)c2)CC1 has measured % Cell Viability not below 60%. Thanks!
yes

Is % Cell Viability at least 60%? Consider Cc1ccc(N2CCNCC2)cc1C(=O)N[C@H](C)c1cccc2ccccc12
no
